Test: in vivo
Conditions: female, Syrian golden, hamster, iv, 1 mg/kg, Concentration, average
REPORTED_METRIC: concentration at 24 h (ng/mL)
State just the number; it will be interpreted in ng/mL.

Exam item: Provide one value: measured concentration at 24 h of `C[C@H]1Cn2ncc(C(=O)Nc3cccc(C#N)c3)c2C(=O)N1c1ccc(C(F)(F)c2ccccc2)cc1`
Marked response: 19.2

* * *

Test: in vivo
Details: female, Syrian golden, hamster, iv, 1 mg/kg, Concentration, average
REPORTED_METRIC: concentration at 0.05 h

Exam item: Provide one value: measured concentration at 0.05 h of `C[C@H]1Cn2ncc(C(=O)Nc3cccc(C#N)c3)c2C(=O)N1c1ccc(C(F)(F)c2ccccc2)cc1`
Marked response: 555 ng/mL

* * *

Assay: in vivo
Details: female, Syrian golden, hamster, po, 5 mg/kg, Concentration, individual animal
REPORTED_METRIC: concentration at 7 h (ng/mL)
State just the number; it will be interpreted in ng/mL.

Exam item: Provide one value: measured concentration at 7 h of C[C@H]1Cn2ncc(C(=O)Nc3cccc(C#N)c3)c2C(=O)N1c1ccc(C(F)(F)c2ccccc2)cc1 [JNJ-9676]
Marked response: 142

* * *

Assay: in vivo
Conditions: female, Syrian golden, hamster, po, 5 mg/kg, Concentration, average
REPORTED_METRIC: concentration at 7 h (µg/mL)
State just the number; it will be interpreted in µg/mL.

Exam item: Provide one value: measured concentration at 7 h of C[C@H]1Cn2ncc(C(=O)Nc3cccc(C#N)c3)c2C(=O)N1c1ccc(C(F)(F)c2ccccc2)cc1 [JNJ-9676]
Marked response: 0.176

* * *

Test: in vivo
Conditions: female, Syrian golden, hamster, iv, 1 mg/kg, Concentration, individual animal
REPORTED_METRIC: concentration at 24 h (ng/mL)
State just the number; it will be interpreted in ng/mL.

Exam item: Provide one value: measured concentration at 24 h of `C[C@H]1Cn2ncc(C(=O)Nc3cccc(C#N)c3)c2C(=O)N1c1ccc(C(F)(F)c2ccccc2)cc1`
Marked response: 20.1

* * *

Test: in vivo
Conditions: female, Syrian golden, hamster, iv, 1 mg/kg, Concentration, average
REPORTED_METRIC: concentration at 1 h
Please provide the amount together with its unit, number first.

Exam item: Provide one value: measured concentration at 1 h of `C[C@H]1Cn2ncc(C(=O)Nc3cccc(C#N)c3)c2C(=O)N1c1ccc(C(F)(F)c2ccccc2)cc1`
Marked response: 240 ng/mL

* * *

Experiment: in vivo
Conditions: female, Syrian golden, hamster, iv, 1 mg/kg, Concentration, individual animal
REPORTED_METRIC: concentration at 0.05 h (ng/mL)
State just the number; it will be interpreted in ng/mL.

Exam item: Provide one value: measured concentration at 0.05 h of `C[C@H]1Cn2ncc(C(=O)Nc3cccc(C#N)c3)c2C(=O)N1c1ccc(C(F)(F)c2ccccc2)cc1`
Marked response: 558

* * *

Assay: in vivo
Settings: female, Syrian golden, hamster, iv, 1 mg/kg, Concentration, average
REPORTED_METRIC: concentration at 2 h (ng/mL)
State just the number; it will be interpreted in ng/mL.

Exam item: Provide one value: measured concentration at 2 h of C[C@H]1Cn2ncc(C(=O)Nc3cccc(C#N)c3)c2C(=O)N1c1ccc(C(F)(F)c2ccccc2)cc1 [JNJ-9676]
Marked response: 186
